measured_quantity: melting point (°C)

Worked cases, melting point given:
compound | measured_quantity | recorded_value
COc1cccc2ccc(N3CCN(CCCCC4(C(=O)NCC(F)(F)F)c5ccccc5-c5ccccc54)CC3)nc12 [Example 36] | melting point | 67
COCCCNC(=O)C1(CCCCN2CCN(c3ccc4ccccc4n3)CC2)c2ccccc2-c2ccccc21 | melting point | 87
Cn1c(N2CCN(CCCCC3(C(=O)NCC(F)(F)F)c4ccccc4Oc4ccccc43)CC2)nc2ccccc21 | melting point | 110

a. C[C@H]1CN(c2ccc3ccccc3n2)CCN1CCCCC1(C(=O)NCC(F)(F)F)c2ccccc2-c2ccccc21
b. Cn1c(N2CCN(CCCCC3(C(=O)NCc4ccc(F)cc4)c4ccccc4-c4ccccc43)CC2)nc2cccnc21
c. CC1CN(CCCCC2(C(=O)NCC(F)(F)F)c3ccccc3-c3ccccc32)CCN1c1ccc2ccccc2n1 (stereo not shown)
Exam item: list the entries in increasing order of melting point. The labels, placed in the requested order, form the answer.
c, a, b
(c: 50 °C, a: 102 °C, b: 153 °C)

P. COc1ccc(CNC(=O)C2(CCCCN3CCN(c4ccc5ccccc5n4)CC3)c3ccccc3-c3ccccc32)cc1OC
Q. C[C@@H]1CN(c2ncc3ccccc3n2)C[C@H](C)N1CCCCC1(C(=O)NCc2ccc(F)cc2)c2ccccc2-c2ccccc21
Pick one: P or Q . Which has the bigger melting point number? Write the label of whichever entry you select.
Q
(Q: 172 °C, P: 118 °C)

----------
measured_quantity: melting point (°C)

1. O=C(NCc1ccc(F)cc1)C1(CCCCN2CCN(c3ncc4ccccc4n3)CC2)c2ccccc2-c2ccccc21 [Example 58]
2. CCn1c(N2CCN(CCCCC3(C(=O)NCC(F)(F)F)c4ccccc4-c4ccccc43)CC2)nc2ccccc21 [Example 11]
Quick one: lower melting point, 1 or 2 ? Write the label of whichever entry you select.
2
(2: 55 °C, 1: 160 °C)

----------
measured_quantity: melting point (°C)

compound | unit_tag | melting point
COc1cccc2ccc(N3CCN(CCCCC4(C(=O)NCC(F)(F)F)c5ccccc5-c5ccccc54)CC3)nc12 [Example 30] | °C | 74

a. O=C(NCC(F)(F)F)C1(CCCCN2CCN(c3ccc4cccc(Br)c4n3)CC2)c2ccccc2-c2ccccc21 [Example 32]
b. C[C@@H]1CN(c2ccc3ccccc3n2)C[C@H](C)N1CCCCC1(C(=O)NCC(F)(F)F)c2ccccc2-c2ccccc21 [Example 42]
Pick one: a or b . Which has the bigger melting point number? Write the label of whichever entry you select.
b
(b: 169 °C, a: 66 °C)

----------
Here the recorded melting point is given for each entry.

Worked cases, melting point given:
structure_notation | melting point
O=C(NCC(F)(F)F)C1(CCCCN2CCN(c3ccc4ccccc4n3)CC2)c2ccccc2-c2ccccc21 | 56 to 57 °C
O=C(NCC(F)(F)F)C1(CCCCN2CCN(c3nc4ccccc4s3)CC2)c2ccccc2Oc2ccccc21 | 58 to 62 °C
O=C(O)CNC(=O)C1(CCCCN2CCN(c3ccc4ccccc4n3)CC2)c2ccccc2-c2ccccc21 | 127 to 129 °C

// Input: `CCCCNC(=O)C1(CCCCN2CCN(c3ccc4ccccc4n3)CC2)c2ccccc2Oc2ccccc21` . Output its melting point only.
45 to 53 °C

----------
Here the recorded melting point is given for each entry.

// Input: `O=C(O)CCNC(=O)C1(CCCCN2CCN(c3ccc4ccccc4n3)CC2)c2ccccc2-c2ccccc21` . Output its melting point only.
98 to 100 °C

// Input: `O=C(NCC(F)(F)F)C1(CCCCN2CCN(c3ccc4c(Cl)cccc4n3)CC2)c2ccccc2-c2ccccc21` . Output its melting point only.
142 to 143 °C

// Input: `O=C(NCC(F)(F)F)C1(CCCCN2CCN(c3nc4ccccc4o3)CC2)c2ccccc2Oc2ccccc21` . Output its melting point only.
196 to 197 °C

// Input: `O=C(NCc1ccc(F)cc1F)C1(CCCCN2CCN(c3ccc4ccccc4n3)CC2)c2ccccc2-c2ccccc21` . Output its melting point only.
116 to 118 °C

----------
measured_quantity: melting point (°C)

structure_notation | melting point [°C]
O=C(NCC(F)(F)F)C1(CCCCN2CCN(c3ccc4cc(Cl)ccc4n3)CC2)c2ccccc2-c2ccccc21 | 151
COc1ccc(CNC(=O)C2(CCCCN3CCN(c4ccc5ccccc5n4)CC3)c3ccccc3-c3ccccc32)c(OC)c1 | 44
O=C(NCc1ccc(F)cc1)C1(CCCCN2CCN(c3cnc4ccccc4n3)CC2)c2ccccc2-c2ccccc21 | 160
Cn1c(N2CCN(CCCCC3(C(=O)NCC(F)(F)F)c4ccccc4-c4ccccc43)CC2)nc2cccnc21 | 60

a. COc1ccc(CNC(=O)C2(CCCCN3CCN(c4nc5ccccc5s4)CC3)c3ccccc3-c3ccccc32)cc1
b. O=C(NCC(F)(F)F)C1(CCCN2CCN(c3nc4ccccc4s3)CC2)c2ccccc2-c2ccccc21
Quick one: lower melting point, a or b ? Write the label of whichever entry you select.
b

----------
measured_quantity: melting point (°C)

molecule | measured_quantity | recorded_value
O=C(NCC(F)(F)F)C1(CCCCN2CCN(c3ccc4cccc(Cl)c4n3)CC2)c2ccccc2Oc2ccccc21 [Example 106] | melting point | 68

A. Cn1c(N2CCN(CCCCC3(C(=O)NCC(F)(F)F)c4ccccc4-c4ccccc43)CC2)nc2ccc(F)cc21 [Example 17]
B. O=C(NCC(F)(F)F)C1(CCCCN2CCN(c3nc4ccc(Cl)cc4s3)CC2)c2ccccc2-c2ccccc21 [Example 24]
Pick one: A or B . Which has the bigger melting point number? Write the label of whichever entry you select.
B
(B: 187 °C, A: 54 °C)

----------
measured_quantity: melting point (°C)

P. O=C(NCC(F)(F)F)C1(CCCCN2CCN(c3cc(-c4ccccc4)c4ccccc4n3)CC2)c2ccccc2-c2ccccc21 [Example 25]
Q. O=C(NCc1ccc(F)cc1)C1(CCCCN2CCN(c3nc4ccccc4s3)CC2)c2ccccc2-c2ccccc21 [Example 59]
Pick one: P or Q . Which has the bigger melting point number? Write the label of whichever entry you select.
Q
(Q: 160 °C, P: 105 °C)

P. C[C@@H]1CN(c2ccc3ccccc3n2)CCN1CCCCC1(C(=O)NCC(F)(F)F)c2ccccc2-c2ccccc21 [Example 39]
Q. O=C(NCC(F)(F)F)C1(CCCCN2CCN(c3ccc4c(Cl)cccc4n3)CC2)c2ccccc2Oc2ccccc21 [Example 104]
Quick one: lower melting point, P or Q ? Write the label of whichever entry you select.
P
(P: 102 °C, Q: 160 °C)

----------
Here the recorded melting point is given for each entry.

Worked cases, melting point given:
structure_notation | melting point
O=C(N1CCOCC1)C1(CCCCN2CCN(c3ccc4ccccc4n3)CC2)c2ccccc2Oc2ccccc21 | 48 to 58 °C
O=C(NCc1cccs1)C1(CCCCN2CCN(c3ccc4ccccc4n3)CC2)c2ccccc2-c2ccccc21 | 45 to 50 °C
O=C(NCCc1ccccc1)C1(CCCCN2CCN(c3ccc4ccccc4n3)CC2)c2ccccc2-c2ccccc21 | 55 to 57 °C
C[C@@H]1CN(c2ccc3c(Cl)cccc3n2)C[C@H](C)N1CCCCC1(C(=O)NCc2ccc(F)cc2)c2ccccc2-c2ccccc21 | 136 to 137 °C
COc1cccc(CNC(=O)C2(CCCCN3CCN(c4ccc5ccccc5n4)CC3)c3ccccc3-c3ccccc32)c1 | 114 to 116 °C

// Input: `O=C(NCC(F)(F)C(F)(F)F)C1(CCCCN2CCN(c3ccc4ccccc4n3)CC2)c2ccccc2-c2ccccc21` . Output its melting point only.
120 °C

// Input: `C[C@@H]1CN(c2nc3ccccc3o2)C[C@H](C)N1CCCCC1(C(=O)NCc2ccc(F)cc2)c2ccccc2-c2ccccc21` . Output its melting point only.
153 °C

// Input: `C[C@@H]1CN(c2nc3ccccc3s2)C[C@H](C)N1CCCCC1(C(=O)NCC(F)(F)F)c2ccccc2-c2ccccc21` . Output its melting point only.
163 to 165 °C

// Input: `O=C(NCC(F)(F)F)C1(CCCCN2CCN(c3cnc4ccccc4n3)CC2)c2ccccc2-c2ccccc21` . Output its melting point only.
142 to 145 °C

// Input: `COC(=O)CNC(=O)C1(CCCCN2CCN(c3ccc4ccccc4n3)CC2)c2ccccc2-c2ccccc21` . Output its melting point only.
53 to 55 °C
